Assay: Volume of distribution at steady state in Sprague-Dawley rat at 2 mg/kg, iv
Type: ADME, organism-based
Design: dose 2 mg/kg, route intravenous
Conditions: in vivo, read-out: Vdss
Below: a set of entries, each annotated with reported Vd.

{"MOLECULE": "CCc1ccc(-n2cc(C(=O)NOC)c(=O)c3cnc(Nc4ccc(C5CCN(C)CC5)cc4)nc32)cc1", "Vd (L/kg)": 5.9}
{"MOLECULE": "CCN1CCCC(O)(c2cccc(Nc3ncc4c(=O)c(C(=O)NOC)cn(-c5ccc6c(c5)CCC6)c4n3)c2)C1 (configuration not stated)", "Vd (L/kg)": 5.6}
{"MOLECULE": "CNC(=O)c1cn(-c2ccc3c(c2)CCC3)c2nc(Nc3ccc(CCN4CCOCC4)cc3)ncc2c1=O", "Vd (L/kg)": 2.6}
{"MOLECULE": "CONC(=O)c1cn(-c2ccc3c(c2)CCC3)c2nc(Nc3ccc(CCN4CCNC(=O)C4)cc3)ncc2c1=O", "Vd (L/kg)": 0.8}
{"MOLECULE": "CONC(=O)c1cn(-c2ccc3c(c2)CCC3)c2nc(Nc3ccc(CCN4CCN(C)CC4)cc3)ncc2c1=O", "Vd (L/kg)": 1.5}
{"MOLECULE": "CONC(=O)c1cn(-c2ccc3c(c2)CCC3)c2nc(Nc3ccc(C4CCN(CCO)CC4)cc3)ncc2c1=O", "Vd (L/kg)": 8.8}
{"MOLECULE": "CN1CCN(CCc2ccc(Nc3ncc4c(=O)c(C(N)=O)cn(-c5ccc6c(c5)CCC6)c4n3)cc2)CC1", "Vd (L/kg)": 15.5}
